# EXPERIMENT NOTES: Pharmacokinetics of decitabine in IVAP rabbit model
# Format: in vivo, rabbits
# REPORTED CONDITIONS: rabbit, plasma, iv, 2.5 mg/kg, 2.5 mg/kg IV

{"MOLECULE": "Nc1ncn([C@H]2C[C@H](O)[C@@H](CO)O2)c(=O)n1 [decitabine, 5-aza-2′-deoxycytidine]", "half-life / min": 35.4}

---

# EXPERIMENT NOTES: Pharmacokinetics of decitabine in IVAP rabbit model
# Assay type: in vivo, rabbits
# REPORTED CONDITIONS: rabbit, plasma, 2.5 mg/kg, 2.5 mg/kg LSI; read-out: Mean Residence Time
READOUT TYPE: MRT

{"COMPOUND": "Nc1ncn([C@H]2C[C@H](O)[C@@H](CO)O2)c(=O)n1 [decitabine, 5-aza-2′-deoxycytidine]", "READOUT TYPE": "MRT", "TEST VALUE": "55.2 min"}
